- Target Entity: human coagulation factor XI (FXI) (human, UniProt P03951 19-625)
- Protocol Text: cell-based or functional assay
The binders listed here are annotated with their APTT (% NPP).
The reply should be a number in % NPP, with the unit left off.

These recorded examples may help you get a feel for the data.
Binder	Measured Value
composite human mAb VH2/Vκ2 (antibody, V domains shown, Human IgG4 (S241P hinge mutant) heavy chain and human kappa light chain) VH: QVQLVQSGSELKKPGASVKLSCKASGYTFTRYWMHWVKQAPGQGLEWIGNIYPDSDSTNYDEKFRTRATLTADTSTSTAYMELSSLRSEDTAVYYCTRMGFYAMDYWGQGTTVTVSS VL: NIVMTQSPSSLSASVGDRVTITCKASENVVTYVSWFQQKPGQAPKLLIYGASNRYTGVPDRFSGSGSATDFTLTISSLQAEDVADYHCGQSYSYPLTFGQGTKLEIKR	243
composite human mAb VH3/Vκ3 (antibody, V domains shown, Human IgG4 (S241P hinge mutant) heavy chain and human kappa light chain) VH: QVQLVQSGSELKKPGASVKLSCKASGYTFTRYWMHWVRQAPGQGLEWIGNIYPDSDSTNYDEKFRTRVTLTADTSTSTAYMELSSLRSEDTAVYYCTRMGFYAMDYWGQGTTVTVSS VL: DIVMTQSPSSLSASVGDRVTITCKASENVVTYVSWFQQKPGQAPKLLIYGASNRYTGVPDRFSGSGSGTDFTLTISSLQAEDVADYHCGQSYSYPLTFGQGTKLEIKR	256

Okay, now this binder:
Dear colleague, I am looking for the recorded APTT (% NPP) of the following binder: composite human mAb VH3/Vκ1 (antibody, V domains shown, Human IgG4 (S241P hinge mutant) heavy chain and human kappa light chain) VH: QVQLVQSGSELKKPGASVKLSCKASGYTFTRYWMHWVRQAPGQGLEWIGNIYPDSDSTNYDEKFRTRVTLTADTSTSTAYMELSSLRSEDTAVYYCTRMGFYAMDYWGQGTTVTVSS VL: NIVMTQSPSSLSASVGDRVTITCKASENVVTYVSWFQQKPGQAPKLLIYGASNRYTGVPDRFTGSGSATDFTLTISSLQAEDVADYHCGQSYSYPLTFGQGTKLEIKR 250
